Entries and their Dmax
# System tested: NEK7 (Homo sapiens (Human), UniProt Q8TDX7+Q96SW2)
# Sequence (Q8TDX7 whole entry): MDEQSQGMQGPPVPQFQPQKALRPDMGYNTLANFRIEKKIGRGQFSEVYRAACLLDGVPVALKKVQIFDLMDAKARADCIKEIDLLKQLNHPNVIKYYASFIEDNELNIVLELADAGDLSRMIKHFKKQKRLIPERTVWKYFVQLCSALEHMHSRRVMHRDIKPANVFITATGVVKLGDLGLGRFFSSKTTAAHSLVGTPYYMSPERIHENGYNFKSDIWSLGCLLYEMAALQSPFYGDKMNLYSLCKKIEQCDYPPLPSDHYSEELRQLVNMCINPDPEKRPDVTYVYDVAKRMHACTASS
# Sequence (Q96SW2 whole entry): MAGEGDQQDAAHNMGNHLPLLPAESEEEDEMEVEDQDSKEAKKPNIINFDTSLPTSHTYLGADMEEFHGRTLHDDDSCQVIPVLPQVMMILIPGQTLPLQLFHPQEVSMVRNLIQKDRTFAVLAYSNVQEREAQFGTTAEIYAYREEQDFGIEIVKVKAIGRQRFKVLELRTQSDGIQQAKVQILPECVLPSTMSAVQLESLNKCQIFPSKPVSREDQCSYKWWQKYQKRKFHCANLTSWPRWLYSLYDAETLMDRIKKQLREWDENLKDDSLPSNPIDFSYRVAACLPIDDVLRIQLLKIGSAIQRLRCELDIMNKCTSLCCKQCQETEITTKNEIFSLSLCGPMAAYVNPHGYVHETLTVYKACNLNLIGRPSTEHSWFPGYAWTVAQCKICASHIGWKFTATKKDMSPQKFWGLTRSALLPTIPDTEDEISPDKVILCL
# Sequence (Q16531 2-1140 partner): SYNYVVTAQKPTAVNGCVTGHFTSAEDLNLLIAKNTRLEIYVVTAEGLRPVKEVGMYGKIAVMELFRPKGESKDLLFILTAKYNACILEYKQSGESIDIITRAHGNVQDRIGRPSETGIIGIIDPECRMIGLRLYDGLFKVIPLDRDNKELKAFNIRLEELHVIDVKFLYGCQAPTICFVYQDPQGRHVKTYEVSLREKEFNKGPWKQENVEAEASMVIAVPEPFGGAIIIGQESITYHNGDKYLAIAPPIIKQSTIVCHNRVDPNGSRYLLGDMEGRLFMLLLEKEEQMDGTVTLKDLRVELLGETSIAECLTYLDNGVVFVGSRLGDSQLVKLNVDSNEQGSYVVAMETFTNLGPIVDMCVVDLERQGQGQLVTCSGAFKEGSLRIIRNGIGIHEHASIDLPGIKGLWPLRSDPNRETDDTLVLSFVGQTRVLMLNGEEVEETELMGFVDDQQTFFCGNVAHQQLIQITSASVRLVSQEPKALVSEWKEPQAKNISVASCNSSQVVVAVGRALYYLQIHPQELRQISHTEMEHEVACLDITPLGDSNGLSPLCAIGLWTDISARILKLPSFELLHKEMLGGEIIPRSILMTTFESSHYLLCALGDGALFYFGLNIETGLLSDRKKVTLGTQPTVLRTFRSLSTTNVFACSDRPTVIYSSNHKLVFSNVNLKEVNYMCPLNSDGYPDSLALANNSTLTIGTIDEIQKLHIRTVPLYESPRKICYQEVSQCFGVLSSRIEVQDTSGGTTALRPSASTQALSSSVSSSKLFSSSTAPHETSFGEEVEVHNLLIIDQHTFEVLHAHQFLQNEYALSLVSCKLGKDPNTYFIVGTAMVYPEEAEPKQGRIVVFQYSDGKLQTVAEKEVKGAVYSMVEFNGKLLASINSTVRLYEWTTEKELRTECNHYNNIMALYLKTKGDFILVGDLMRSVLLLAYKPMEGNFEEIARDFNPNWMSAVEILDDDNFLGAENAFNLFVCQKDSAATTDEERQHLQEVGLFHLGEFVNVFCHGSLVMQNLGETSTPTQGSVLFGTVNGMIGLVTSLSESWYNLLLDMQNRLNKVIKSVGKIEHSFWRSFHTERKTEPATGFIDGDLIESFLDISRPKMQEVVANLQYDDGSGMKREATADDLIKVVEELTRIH
# Test method notes: NEK7 NanoBiT degradation assay in Cal51 NEK7 NanoBiT cell line
# Type: cell-based
# Recorded conditions: CAL-51; NEK7 degradation, Cal51 NEK7 NanoBiT cells, 24 hours; read-out: NanoBiT Dmax

Field: example entries. Status: answers known.
| Compound | Dmax |
| --- | --- |
| COc1cnc(C(C)(C)C(=O)NCc2cc(Cl)c(C3CCC(=O)NC3=O)c(Cl)c2)nc1C (stereo not shown) | > 75% |
| O=C1CC(C(=O)NCc2cc(Cl)c(C3CCC(=O)NC3=O)c(Cl)c2)(c2ccc(F)cc2)C1 (stereo not shown) | > 75% |
| CC(C)(C(=O)NCc1ccc(C2CCC(=O)NC2=O)c(Cl)c1)c1ccccc1F (stereo not shown) | 50 to 75% |

Next compound, Dmax to be filled in.
Query string: So what Dmax did CC(C)(C(=O)NCc1cc(Cl)c(C2CCC(=O)NC2=O)c(Cl)c1)c1nnc(C(F)F)o1 (stereo not shown) get with NEK7 (Homo sapiens (Human), UniProt Q8TDX7+Q96SW2)?
Result string: 50 to 75%

----------
# System tested: NEK7 (Homo sapiens (Human), UniProt Q8TDX7+Q96SW2)
# Test method notes: NEK7 NanoBiT degradation assay in Cal51 NEK7 NanoBiT cell line
# Format: cell-based
# Recorded conditions: Cal51 NEK7 NanoBiT cells, 24 hours; read-out: NEK7 NanoBiT DC50
Metric name: DC50 (nM)

| Compound | Units symbol | Data value |
| --- | --- | --- |
| CC(C)(C(=O)NCc1cc(Cl)c(C2CCC(=O)NC2=O)c(Cl)c1)c1cc(C(F)F)ncn1 (centres unmarked) [Compound 159] | nM | 28 |
| O=C1CCC(c2c(Cl)cc(CNC(=O)C3(c4ccc5[nH]ncc5c4)CCOCC3)cc2Cl)C(=O)N1 (centres unmarked) [Compound 132] | nM | 5 |
| Cn1cnnc1C(C)(C)C(=O)NCc1cc(Cl)c(C2CCC(=O)NC2=O)c(Cl)c1 (centres unmarked) [Compound 119] | nM | 1000 |
| CC(C)(C(=O)NCc1cc(Cl)c(C2CCC(=O)NC2=O)c(Cl)c1)c1cc[nH]c(=O)c1 (centres unmarked) [Compound 84] | nM | 22 |
| Cn1ncc2ccc(C3(C(=O)NCc4cc(Cl)c(C5CCC(=O)NC5=O)c(Cl)c4)CC(=O)C3)cc21 (centres unmarked) [Compound 134] | nM | 2 |

P. CC(C)(C(=O)NCc1cc(Cl)c(C2CCC(=O)NC2=O)c(Cl)c1)c1nc(C2CC2)co1 (centres unmarked) [Compound 193]
Q. CC(C)(C(=O)NCc1cc(Cl)c(C2CCC(=O)NC2=O)c(Cl)c1)C1CCCO1 (centres unmarked) [Compound 265]
Query string: Which entry has a larger number for DC50, P or Q ? Identify your pick by its label.
Result string: Q
(Q: 474 nM, P: 10 nM)

1. Cc1cc(C(C)(C)C(=O)NCc2cc(Cl)c(C3CCC(=O)NC3=O)c(Cl)c2)cc(=O)n1C (centres unmarked) [Compound 53]
2. CCOc1cnc(C(C)(C)C(=O)NCc2cc(F)c(C3CCC(=O)NC3=O)c(Cl)c2)cn1 (centres unmarked) [Compound 252]
3. CC(C)(C(=O)NCc1cc(Cl)c([C@H]2CCC(=O)NC2=O)c(Cl)c1)c1ncccn1 (single isomer, unassigned) [Compound 180]
4. CC(C)(C(=O)NCc1cc(Cl)c(C2CCC(=O)NC2=O)c(Cl)c1)c1cccc(C(N)=O)c1 (centres unmarked) [Compound 65]
5. CC(C)(C(=O)NCc1cc(Cl)c(C2CCC(=O)NC2=O)c(Cl)c1)c1ccc2[nH]ccc2c1 (centres unmarked) [Compound 91]
Query string: Let's sort these by DC50, smallest first. Go ahead? A ranking is expressed here by listing the labels in the requested order.
Result string: 5, 4, 2, 1, 3

a. CCn1ccc(C(C)(C)C(=O)NCc2cc(Cl)c(C3CCC(=O)NC3=O)c(Cl)c2)cc1=O (centres unmarked) [Compound 45]
b. Cc1ccc(C(C)(C)C(=O)NCc2cc(Cl)c(C3CCC(=O)NC3=O)c(Cl)c2)nn1 (centres unmarked) [Compound 12]
Query string: Dear colleague, could you let me know whether a or b has the lower recorded DC50? Thanks. Identify your pick by its label.
Result string: b
(b: 8 nM, a: 13 nM)

1. CC(C)(C(=O)NCc1cc(Cl)c(C2CCC(=O)NC2=O)c(Cl)c1)c1ccnc(C#N)c1 (centres unmarked) [Compound 92]
2. O=C1CCC(c2c(Cl)cc(CNC(=O)C3(c4ncccn4)CCC3)cc2Cl)C(=O)N1 (centres unmarked) [Compound 169]
Query string: Dear colleague, could you let me know whether 1 or 2 has the lower recorded DC50? Thanks. Identify your pick by its label.
Result string: 2

----------
# System tested: CRBN-DDB1 (Homo sapiens (Human))
# Test method notes: Compound binding to CRBN by HTRF assay
pEC50: −log10 of the molar value.
Metric name: pEC50

| Molecule | System tested | pEC50 |
| --- | --- | --- |
| CC(C)(C(=O)NCc1cc(Cl)c(C2CCC(=O)NC2=O)c(Cl)c1)c1cccc(NS(C)(=O)=O)c1 (stereo not shown) | CRBN-DDB1 (Homo sapiens (Human)) | 7.22 |

A. CC(C)(C(=O)NCc1cc(Cl)c(C2CCC(=O)NC2=O)c(Cl)c1)c1cnccn1 (stereo not shown)
B. COc1cnc(C(C)(C)C(=O)NCc2cc(F)c(C3CCC(=O)NC3=O)c(Cl)c2)cn1 (stereo not shown)
Query string: Dear colleague, could you let me know whether A or B has the lower recorded pEC50? Thanks. Identify your pick by its label.
Result string: A

----------
# System tested: CRBN-DDB1 (Homo sapiens (Human))
# Test method notes: Compound binding to CRBN by HTRF assay
Metric name: EC50 (nM)

| Compound | EC50 / nM |
| --- | --- |
| CC(C)(C(=O)NCc1cc(Cl)c(C2CCC(=O)NC2=O)c(Cl)c1)c1ccc(S(N)(=O)=O)cc1F (stereo not shown) | 40 |

P. CC(C)(C(=O)NCc1cc(Cl)c(C2CCC(=O)NC2=O)c(Cl)c1)c1ccccn1 (stereo not shown)
Q. CC(C)(C(=O)NCc1cc(Cl)c(C2CCC(=O)NC2=O)c(Cl)c1)c1ccc2[nH]ccc2c1 (stereo not shown)
Query string: Which entry has a larger number for EC50, P or Q ? Identify your pick by its label.
Result string: P
(P: 70 nM, Q: 40 nM)

a. CC(C)(C(=O)NCc1cc(Cl)c(C2CCC(=O)NC2=O)c(Cl)c1)c1cc(F)c(S(N)(=O)=O)c(F)c1 (stereo not shown)
b. Cc1cncc(C(C)(C)C(=O)NCc2cc(Cl)c(C3CCC(=O)NC3=O)c(Cl)c2)n1 (stereo not shown)
Query string: Dear colleague, could you let me know whether a or b has the lower recorded EC50? Thanks. Identify your pick by its label.
Result string: b
(b: 50 nM, a: 80 nM)

----------
# System tested: NEK7 (Homo sapiens (Human), UniProt Q8TDX7+Q96SW2)
# Test method notes: NEK7 NanoBiT degradation assay in Cal51 NEK7 NanoBiT cell line
# Assay type: cell-based
# Recorded conditions: CAL-51; Cal51 NEK7 NanoBiT cells, 24 hours; read-out: NEK7 NanoBiT Dmax
Metric name: Dmax (%)

I. CC(C)(C(=O)NCc1cc(F)c(C2CCC(=O)NC2=O)c(Cl)c1)c1cnc(OC(F)(F)F)cn1 (stereo not shown)
II. CC(C)(C(=O)NCc1cc(Cl)c(C2CCC(=O)NC2=O)c(Cl)c1)c1cccc(C(N)=O)c1 (stereo not shown)
III. Cn1cnnc1C(C)(C)C(=O)NCc1cc(Cl)c(C2CCC(=O)NC2=O)c(Cl)c1 (stereo not shown)
Query string: List the 3 compounds shown above, ordered by increasing Dmax. A ranking is expressed here by listing the labels in the requested order.
Result string: III, I, II

----------
# System tested: CRBN-DDB1 (Homo sapiens (Human), UniProt Q96SW2)
# Sequence (Q96SW2 whole entry): as the sequence (Q96SW2 whole entry) above
# Sequence (Q16531 whole entry partner): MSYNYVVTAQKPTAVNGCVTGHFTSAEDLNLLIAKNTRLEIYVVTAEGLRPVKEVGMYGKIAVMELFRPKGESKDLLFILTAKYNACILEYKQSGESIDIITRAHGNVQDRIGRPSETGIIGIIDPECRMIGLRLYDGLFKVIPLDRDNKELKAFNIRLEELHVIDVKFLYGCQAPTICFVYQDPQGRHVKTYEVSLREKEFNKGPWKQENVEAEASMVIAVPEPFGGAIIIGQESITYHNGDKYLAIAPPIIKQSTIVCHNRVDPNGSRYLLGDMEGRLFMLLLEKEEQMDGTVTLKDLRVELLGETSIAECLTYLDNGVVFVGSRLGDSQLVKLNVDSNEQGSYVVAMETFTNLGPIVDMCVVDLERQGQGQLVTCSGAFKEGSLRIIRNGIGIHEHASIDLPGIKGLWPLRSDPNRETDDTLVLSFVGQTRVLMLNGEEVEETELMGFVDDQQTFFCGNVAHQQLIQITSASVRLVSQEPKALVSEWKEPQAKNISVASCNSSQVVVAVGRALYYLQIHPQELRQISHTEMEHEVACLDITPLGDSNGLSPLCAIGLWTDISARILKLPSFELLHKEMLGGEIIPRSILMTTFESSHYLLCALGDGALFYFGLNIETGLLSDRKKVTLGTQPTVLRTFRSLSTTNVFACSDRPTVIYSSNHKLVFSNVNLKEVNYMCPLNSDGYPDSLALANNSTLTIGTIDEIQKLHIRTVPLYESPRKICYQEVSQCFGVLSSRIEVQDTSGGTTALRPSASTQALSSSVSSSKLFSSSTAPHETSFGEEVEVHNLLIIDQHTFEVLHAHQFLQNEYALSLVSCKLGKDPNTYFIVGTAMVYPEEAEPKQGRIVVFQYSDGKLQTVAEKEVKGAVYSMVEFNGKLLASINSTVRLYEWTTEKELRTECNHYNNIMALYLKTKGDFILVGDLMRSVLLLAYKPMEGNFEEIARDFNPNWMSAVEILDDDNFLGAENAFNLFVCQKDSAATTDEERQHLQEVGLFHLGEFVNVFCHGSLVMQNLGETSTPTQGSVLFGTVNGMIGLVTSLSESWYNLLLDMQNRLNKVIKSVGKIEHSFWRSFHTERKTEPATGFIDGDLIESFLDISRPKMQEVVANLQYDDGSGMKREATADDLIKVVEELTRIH
# Test method notes: Compound binding to CRBN by HTRF assay
# Procedure: Compound activity was monitored in a Homogenous Time-Resolved Fluorescence (HTRF) assay using 1-[5-({2-[2-(2-{[2-(2,6-dioxopiperidin-3-yl)-1,3-dioxo-2,3-dihydro-1H-isoindol-4-yl]oxy}acetamido)ethoxy]ethyl}carbamoyl)pentyl]-3,3-dimethyl-2-[(1E,3E)-5-[(2E)-1,3,3-trimethyl-5-sulfo-2,3-dihydro-1H-indol-2-ylidene]penta-1,3-dien-1-yl]-3H-indol-1-ium-5-sulfonate as a fluorescent probe. Biochemical assays were conducted in Greiner white 384 well HiBase plates (Cat. No 784075-25) in 20 μL total volume. […]
pEC50: −log10 of the molar value.
Metric name: pEC50

Field: example entries. Status: answers known.
| Compound | Data value |
| --- | --- |
| Cc1noc(C(C)(C)C(=O)NCc2cc(Cl)c(C3CCC(=O)NC3=O)c(Cl)c2)n1 (centres unmarked) | 6.62 |
| O=C1CCC(c2c(Cl)cc(CNC(=O)C3(c4ccccc4)COC3)cc2Cl)C(=O)N1 (centres unmarked) | 7.05 |

A. Cc1ocnc1C(C)(C)C(=O)NCc1cc(Cl)c(C2CCC(=O)NC2=O)c(Cl)c1 (centres unmarked)
B. CC(C)(C(=O)NCc1cc(Cl)c(C2CCC(=O)NC2=O)c(Cl)c1)c1cccc(C#N)c1 (centres unmarked)
C. CC(C)(C(=O)NCc1cc(Cl)c(C2CCC(=O)NC2=O)c(C#N)c1)c1ccccc1 (centres unmarked)
D. CC(C)(C(=O)NCc1cc(Cl)c(C2CCC(=O)NC2=O)c(Cl)c1)c1ccc(NS(C)(=O)=O)cc1 (centres unmarked)
Query string: Ranking field: pEC50; order: falling. A ranking is expressed here by listing the labels in the requested order.
Result string: B, D, A, C
